Recorded values, source paper PMC10828496.

# assay_system: T1, METTL15 WT (Homo sapiens, UniProt A6NJ78 70-407)
# T1 sequence: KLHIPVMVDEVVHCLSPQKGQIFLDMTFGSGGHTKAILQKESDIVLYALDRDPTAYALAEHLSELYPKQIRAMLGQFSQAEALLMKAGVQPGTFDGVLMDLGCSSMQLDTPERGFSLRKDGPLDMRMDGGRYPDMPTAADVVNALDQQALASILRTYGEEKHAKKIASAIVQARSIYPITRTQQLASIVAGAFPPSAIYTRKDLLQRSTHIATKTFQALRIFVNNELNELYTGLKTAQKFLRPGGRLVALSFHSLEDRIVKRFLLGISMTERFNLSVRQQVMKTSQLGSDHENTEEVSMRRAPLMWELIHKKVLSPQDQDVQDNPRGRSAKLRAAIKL
# test_description: fluorescence polarization; FP: dilution buffer B (50 mM Na2HPO4, 150 mM NaCl, pH 7.0), 20 C, 15 min incubation, 80 nM FAM-RNA stock mixed 1:1 (40 nM final); 1:1 binding model
# condition_parameters: protein: recombinant; tags: SUMO tag removed (ULP1); label: 5'-FAM
measurement_kind: Kd (nM)
Return type: number; implicit unit nM.

# binder, units_label, reported_measurement
data = [
    ("CACACCGCCCGUCAC (ssRNA) [5'-FAM-h44_ssRNA3]", "nM", 2200),
]

Turning to the following binder.
Can you look up the measured Kd of AAAAAAAAAAAAA (ssRNA) [5'-FAM-polyA13] for me? 610
